Target: murine NOD1 (Mus musculus)
Construct: expressed in transfected cells; host or cells: HEK293
Sequence (Q8BHB0 1-953): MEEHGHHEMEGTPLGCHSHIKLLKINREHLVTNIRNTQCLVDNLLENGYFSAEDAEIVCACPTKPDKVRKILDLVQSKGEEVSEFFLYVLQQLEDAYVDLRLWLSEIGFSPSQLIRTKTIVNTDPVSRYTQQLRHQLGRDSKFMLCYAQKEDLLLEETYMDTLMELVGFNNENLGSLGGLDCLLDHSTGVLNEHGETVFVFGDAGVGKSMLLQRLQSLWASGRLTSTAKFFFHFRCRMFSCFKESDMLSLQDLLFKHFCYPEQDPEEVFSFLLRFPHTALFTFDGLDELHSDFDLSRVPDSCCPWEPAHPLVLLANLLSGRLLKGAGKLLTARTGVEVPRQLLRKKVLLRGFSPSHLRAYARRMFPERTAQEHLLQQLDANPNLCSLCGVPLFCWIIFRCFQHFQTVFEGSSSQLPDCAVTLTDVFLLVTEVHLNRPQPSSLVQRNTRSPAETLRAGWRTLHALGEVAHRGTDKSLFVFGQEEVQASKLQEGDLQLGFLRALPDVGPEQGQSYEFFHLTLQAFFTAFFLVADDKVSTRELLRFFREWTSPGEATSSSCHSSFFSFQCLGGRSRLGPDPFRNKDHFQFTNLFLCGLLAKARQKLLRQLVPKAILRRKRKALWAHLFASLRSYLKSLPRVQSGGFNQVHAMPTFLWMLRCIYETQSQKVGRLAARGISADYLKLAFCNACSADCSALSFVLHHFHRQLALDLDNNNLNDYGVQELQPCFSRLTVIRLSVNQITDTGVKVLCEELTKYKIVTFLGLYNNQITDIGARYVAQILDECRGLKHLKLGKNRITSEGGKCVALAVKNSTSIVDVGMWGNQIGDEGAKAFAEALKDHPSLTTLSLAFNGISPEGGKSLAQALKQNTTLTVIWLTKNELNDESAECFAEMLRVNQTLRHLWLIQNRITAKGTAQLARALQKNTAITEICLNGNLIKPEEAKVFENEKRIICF
Test: NOD1 functional agonist assay, 293mNOD1-SEAP reporter cells
Assay type: cell-based
Settings: 293mNOD1 cells, OD above 3*O.D of negative control
metric: mNod1: concentration where a significant mean optical density (OD) can be observed (µg/mL)
Respond numerically; units are µg/mL and should not be typed.

Would you kindly share the measured mNod1: concentration where a significant mean optical density (OD) can be observed for CCCCCCC(=O)N[C@@H](C)C(=O)N[C@H](CCC(=O)N[C@H](CSC[C@H](N)C(=O)O)C(=O)N[C@H](C)C(=O)O)C(=O)O [Example 19] ?
0.1

Which mNod1: concentration where a significant mean optical density (OD) can be observed value belongs to CCCCCCC(=O)N[C@@H](C)C(=O)N[C@H](CCC(=O)N[C@H](CSC[C@H](N)C(=O)O)C(=O)NCC(=O)O)C(=O)O [Example 27] ?
1

Consider the compound shown here: C[C@H](N)C(=O)N[C@H](CCC(=O)N[C@H](CSC[C@H](N)C(=O)O)C(=O)O)C(=O)O [Example 5] What is its recorded mNod1: concentration where a significant mean optical density (OD) can be observed?
1

Given the compound CC(C)C[C@H](N)C(=O)N[C@H](CCC(=O)N[C@H](CSC[C@H](N)C(=O)O)C(=O)O)C(=O)O [Example 6] , what is its reported mNod1: concentration where a significant mean optical density (OD) can be observed?
1

Fill blank: measured mNod1: concentration where a significant mean optical density (OD) can be observed of the compound CCCCCCCCCCCCCC(=O)N[C@H](C(=O)N[C@H](CCC(=O)N[C@H](CSC[C@H](N)C(=O)O)C(=O)O)C(=O)O)C(C)C [Example 12] is ____.
0.1

Given the entry CCCCCCCCCCCC(=O)N[C@H](CCC(=O)N[C@H](CSC[C@H](N)C(=O)O)C(=O)N[C@H](C)C(=O)O)C(=O)O [Example 16] , report its measured mNod1: concentration where a significant mean optical density (OD) can be observed.
0.001

What measured mNod1: concentration where a significant mean optical density (OD) can be observed goes with N[C@H](CCC(=O)N[C@@H](COC[C@@H](N)C(=O)O)C(=O)O)C(=O)O [Example 34] ?
10

So what does the record say about mNod1: concentration where a significant mean optical density (OD) can be observed for CCCCCCCCCCCCCC(=O)N[C@@H](C)C(=O)N[C@H](CCC(=O)N[C@H](CSC[C@H](N)C(=O)O)C(=O)NCC(=O)O)C(=O)O [Example 29] ?
0.001

// returns reported mNod1: concentration where a significant mean optical density (OD) can be observed for input CCCCCCCCCCCC(=O)N[C@H](CCC(=O)N[C@H](CSC[C@H](N)C(=O)O)C(=O)NCC(=O)O)C(=O)O [Example 24]
0.01

If you can, please state the reported mNod1: concentration where a significant mean optical density (OD) can be observed value of CC(=O)N[C@H]1[C@@H](OCc2ccccc2)O[C@H](CO)[C@@H](O)[C@@H]1O[C@H](C)C(=O)N[C@@H](C)C(=O)N[C@H](CCC(=O)N[C@H](CSC[C@H](N)C(=O)O)C(=O)O)C(=O)O [Example 31] .
1
